# System: H9c2
# RUN DESCRIPTION: Cytotoxicity in rat H9c2 cells at 5 uM incubated for 24 hrs by LDH release-based spectrofluorimetrical analysis relative to control
# Assay type: cell-based
# CONDITION INFO: h9c2, 24 h
MEASUREMENT NAME: Activity

O=C(O)c1ccc(-c2ssc(=S)c2-c2ccccc2)cc1 | Non-toxic
C=CCSSCCC(=O)OCC(=O)[C@]1(O)Cc2c(O)c3c(c(O)c2[C@@H](O[C@H]2C[C@H](N)[C@H](O)[C@H](C)O2)C1)C(=O)c1c(OC)cccc1C3=O.Cl | Toxic
COc1cccc2c1C(=O)c1c(O)c3c(c(O)c1C2=O)C[C@@](O)(C(=O)COC(=O)c1ccc(-c2ssc(=S)c2-c2ccccc2)cc1)C[C@@H]3O[C@H]1C[C@H](N)[C@H](O)[C@H](C)O1.Cl | Non-toxic
C=CCSSCCC(=O)OCC | Toxic
COC(=O)c1ccc(C(N)=S)cc1 | Toxic
COc1cccc2c1C(=O)c1c(O)c3c(c(O)c1C2=O)C[C@@](O)(C(=O)COC(=O)c1ccc(-c2cssc2=S)cc1)C[C@@H]3O[C@H]1C[C@H](N)[C@H](O)[C@H](C)O1.Cl | Non-toxic
COc1cccc2c1C(=O)c1c(O)c3c(c(O)c1C2=O)C[C@@](O)(C(=O)COC(=O)c1csc(=S)s1)C[C@@H]3O[C@H]1C[C@H](N)[C@H](O)[C@H](C)O1.Cl | Non-toxic
COc1cccc2c1C(=O)c1c(O)c3c(c(O)c1C2=O)C[C@@](O)(C(=O)COC(=O)c1ccc(C(N)=S)cc1)C[C@@H]3O[C@H]1C[C@H](N)[C@H](O)[C@H](C)O1.Cl | Toxic
COc1cccc2c1C(=O)c1c(O)c3c(c(O)c1C2=O)C[C@@](O)(C(=O)CO)C[C@@H]3O[C@H]1C[C@H](N)[C@H](O)[C@H](C)O1.Cl [DOXORUBICIN HYDROCHLORIDE] | Toxic
C=CCSCC(NC(C)=O)C(=O)OCC(=O)[C@]1(O)Cc2c(O)c3c(c(O)c2[C@@H](O[C@H]2C[C@H](N)[C@H](O)[C@H](C)O2)C1)C(=O)c1c(OC)cccc1C3=O.Cl (stereo partly specified) | Non-toxic
COc1cccc2c1C(=O)c1c(O)c3c(c(O)c1C2=O)C[C@@](O)(C(=O)COC(=O)COc1ccc(-c2cc(=S)ss2)cc1)C[C@@H]3O[C@H]1C[C@H](N)[C@H](O)[C@H](C)O1.Cl | Non-toxic

These measurements were taken from ChEMBL document CHEMBL3817826.
